Target: T1, Human CD19-his protein (human, UniProt P15391 20-291)
T1 construct: bought protein; also called human CD19 protein; recombinant human CD19-His; not shown: His tag
T1 sequence (looked up): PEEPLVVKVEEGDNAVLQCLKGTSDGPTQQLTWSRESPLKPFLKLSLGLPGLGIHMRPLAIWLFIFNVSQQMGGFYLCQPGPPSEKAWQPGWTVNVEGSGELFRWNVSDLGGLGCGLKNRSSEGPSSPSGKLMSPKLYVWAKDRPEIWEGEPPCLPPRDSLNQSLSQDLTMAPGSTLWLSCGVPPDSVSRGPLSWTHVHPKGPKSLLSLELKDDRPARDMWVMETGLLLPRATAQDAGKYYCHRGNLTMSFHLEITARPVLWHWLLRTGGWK
Assay: ELISA, antibody at 100 nM
Quick reference for OD450 among some binders

Worked cases, OD450 given:
INSERT INTO results (binder, recorded_measurement) VALUES
  ('F3.3.10 (antibody, human IgG1, V domains shown, human-murine chimeric antibody, human IgG1) VH: DVQLQESGPGLAKLSQSLSLTCSVTGYSITSGYYWNWIRQFPGNKLEWMGHISYDGNNNYNPSLKNRISITRDTSKNQFFLKLNSVTTEDTATYYCARENYSNYYFDYWGQGTTLTVSS VL: DIVLTQSPASLAVSLGQRATISCRASQSVSKSSYTYIHWYQQKPGQPPKLLIKYASILQSGVPARFSGSGSGTDFTLNFHPVEEEDTATYYCQHSWEIPYTFGGGTKLEIK', 0.59),
  ('F4.49.11 (antibody, human IgG1, V domains shown, human-murine chimeric antibody, human IgG1) VH: DVQLRASGPGLVKPSQSLSLTCSVTGYSITSGYYWNWIRQFPGNKLEWMGCISYDGTNNYNPSLKNRISFTRDTSKNQFFLNLNSVTTEDSATYYCARRVYYRYDGVVDYWGQGTSVTVSS VL: ENVLTQSPAIMSASPGEKVTMTCSASSSVSYIHWYQQKSSTAPKLWIYDTSKLASGVPGRFSGSRSRNSYSLTISSMEAEDVATYYCFQGSGYPLTFGSGTKLEIK', 1.16);

response.value for F6.5.20 (antibody, human IgG1, V domains shown, human-murine chimeric antibody, human IgG1) VH: QVQLQQPGAELVKPGASVKLSCKASGYTFTSYWMQWVKQRPGQGLEWIGEIDPSDSYTNYNQKFKGKASLTVDTSSSTAYMQLSSLTSEDSAVYYCARWGLLRNYYVMDYWGQGTSVTVSS VL: EIVLTQSPTTMAASPGEKITITCSASSSISSNYLHWYQQKPGFSPKLLIYRTSNLASGVPARFSGSGSGTSYSLTIGTMEAEDVATYYCQQGSSIPRMLTFGAGTKLELK (field: OD450) = 0.63

Taken from patent US20250042994A1.
